Data origin, for the record: the kinase profiling compilation of Christmann-Franck et al. (2016)

molecular target: MAP2K1 (human); experiment: radiometric filter-binding kinase assay, Kinase HotSpot; details: compound 0.5 µM; ATP 10 µM
I'd be grateful if you could share measured residual activity for these entries.
Phrase the answer as number then unit, nothing more needed.

Lab entry: MAP2K1 (human) assay, compound `Cc1ccc(NC2=CC(=O)c3sc(C)nc3C2=O)cc1` , residual activity = 96.1%

Lab entry: MAP2K1 (human) assay, compound `CCN(CC)CCNC(=O)c1c(C)[nH]c(/C=C2\C(=O)Nc3ccc(Cl)cc32)c1C` , residual activity = 33.1%

Lab entry: MAP2K1 (human) assay, compound `Nc1ncnc2[nH]nc(Nc3ccc(F)cc3)c12` , residual activity = 101%

Lab entry: MAP2K1 (human) assay, compound `O=C1NC(=O)C(c2cn(CCCn3ccnc3)c3ccccc23)=C1Nc1ccccc1` , residual activity = 90.6%

Lab entry: MAP2K1 (human) assay, compound `O=C1Nc2ccc(Cl)cc2/C1=C/c1cc(Cl)c(O)c(Cl)c1` , residual activity = 96.8%

Lab entry: MAP2K1 (human) assay, compound `O=C1NC(=O)/C(=C/c2ccc3c(c2)OC(F)(F)O3)S1` , residual activity = 95.6%

Lab entry: MAP2K1 (human) assay, compound `Nc1ncnc2c1c(-c1ccc(Oc3ccccc3)cc1)cn2C1CCCC1` , residual activity = 93%

Lab entry: MAP2K1 (human) assay, compound `COc1cc2ncnc(Nc3cccc(Cl)c3)c2cc1OC` , residual activity = 98.5%

Lab entry: MAP2K1 (human) assay, compound `COc1ccc2c(c[n+](C)c3c4cc5c(cc4ccc23)OCO5)c1OC` , residual activity = 97.8%

Lab entry: MAP2K1 (human) assay, compound `N#C/C(=C(/N)Sc1ccc(N)cc1)c1ccccc1C(F)(F)F` , residual activity = 97.9%

Lab entry: MAP2K1 (human) assay, compound `O=C1NC(=O)c2c1c1c3ccccc3n3c1c1c2c2ccccc2n1C1CCC3O1` , residual activity = 29.5%

Lab entry: MAP2K1 (human) assay, compound `CC[n+]1c(/C=C/N(C)c2ccccc2)n(-c2ccccc2)c2ccc(-c3nc4ccccc4s3)cc21` , residual activity = 93.5%

Lab entry: MAP2K1 (human) assay, compound `Cc1ccc(Nc2nccc(N(C)c3ccc4c(C)n(C)nc4c3)n2)cc1S(N)(=O)=O` , residual activity = 106%

Lab entry: MAP2K1 (human) assay, compound `CC(=O)c1ccc(N2CCOCC2)cc1O` , residual activity = 95.2%

Lab entry: MAP2K1 (human) assay, compound `Oc1cccc(-c2nc(N3CCOCC3)c3oc4ncccc4c3n2)c1` , residual activity = 97.7%

Lab entry: MAP2K1 (human) assay, compound `CCN(CC)CCNC(=O)c1c(C)[nH]c(/C=C2\C(=O)Nc3ccc(F)cc32)c1C` , residual activity = 67.8%

Lab entry: MAP2K1 (human) assay, compound `CCN(CC)C(=O)c1ccc(Nc2nc(OCC3CCCCC3)c3nc[nH]c3n2)cc1` , residual activity = 94.1%

Lab entry: MAP2K1 (human) assay, compound `COc1ccc(COc2ccc(Cc3cnc(N)nc3N)cc2OC)cc1` , residual activity = 98.6%

Lab entry: MAP2K1 (human) assay, compound `Nc1ccc2ncnc(NCCc3ccc(Oc4ccccc4)cc3)c2c1` , residual activity = 107%

Lab entry: MAP2K1 (human) assay, compound `O=C(Nc1cccc(Nc2nccc(Nc3cccc(C(F)(F)F)c3)n2)c1)C1CC1` , residual activity = 98%

----------
target: ERBB2 (human) (UniProt P04626); experiment: radiometric filter-binding kinase assay, Kinase HotSpot; details: compound 0.5 µM; ATP 10 µM
Sequence (P04626 whole entry, looked up): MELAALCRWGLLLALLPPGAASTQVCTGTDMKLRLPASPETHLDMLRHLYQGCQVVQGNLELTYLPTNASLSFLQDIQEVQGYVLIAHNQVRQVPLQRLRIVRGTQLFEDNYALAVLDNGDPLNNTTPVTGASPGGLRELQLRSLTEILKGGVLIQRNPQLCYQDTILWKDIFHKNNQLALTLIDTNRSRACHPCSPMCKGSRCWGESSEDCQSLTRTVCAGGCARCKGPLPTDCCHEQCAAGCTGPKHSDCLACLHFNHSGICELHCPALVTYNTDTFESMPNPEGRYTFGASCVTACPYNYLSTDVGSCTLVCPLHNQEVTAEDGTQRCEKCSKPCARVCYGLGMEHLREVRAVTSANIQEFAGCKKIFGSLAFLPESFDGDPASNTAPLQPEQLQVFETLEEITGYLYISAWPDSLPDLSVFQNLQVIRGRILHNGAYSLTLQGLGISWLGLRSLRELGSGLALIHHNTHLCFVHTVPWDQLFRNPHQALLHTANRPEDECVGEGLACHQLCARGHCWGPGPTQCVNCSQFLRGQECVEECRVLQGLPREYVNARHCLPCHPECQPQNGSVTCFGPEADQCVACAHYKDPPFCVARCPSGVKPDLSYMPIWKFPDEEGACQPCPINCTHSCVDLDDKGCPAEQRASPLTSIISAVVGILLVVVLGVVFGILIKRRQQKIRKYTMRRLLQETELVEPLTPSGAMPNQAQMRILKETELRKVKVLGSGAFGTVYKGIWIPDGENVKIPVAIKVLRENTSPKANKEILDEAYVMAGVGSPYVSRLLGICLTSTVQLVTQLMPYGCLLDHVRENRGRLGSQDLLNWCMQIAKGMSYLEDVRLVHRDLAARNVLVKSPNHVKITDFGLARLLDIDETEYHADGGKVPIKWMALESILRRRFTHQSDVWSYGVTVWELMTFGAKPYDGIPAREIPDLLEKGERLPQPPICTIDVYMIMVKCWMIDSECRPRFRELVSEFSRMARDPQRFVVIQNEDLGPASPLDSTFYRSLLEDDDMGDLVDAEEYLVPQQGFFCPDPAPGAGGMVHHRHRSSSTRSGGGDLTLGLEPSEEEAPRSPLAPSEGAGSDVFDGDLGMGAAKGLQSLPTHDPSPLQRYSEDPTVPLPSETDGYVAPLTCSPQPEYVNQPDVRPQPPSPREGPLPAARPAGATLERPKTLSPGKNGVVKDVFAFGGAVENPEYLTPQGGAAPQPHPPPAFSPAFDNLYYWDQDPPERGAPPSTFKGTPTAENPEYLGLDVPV
I'd be grateful if you could share measured residual activity for these entries.
I only need the number, in %, no unit after it.

Lab entry: ERBB2 (human) (UniProt P04626) assay, molecule `N#C/C(=C(/N)Sc1ccc(N)cc1)c1ccccc1C(F)(F)F` , residual activity = 93

Lab entry: ERBB2 (human) (UniProt P04626) assay, molecule `c1ccc(-c2n[nH]cc2-c2ccnc3ccccc23)nc1` , residual activity = 106

Lab entry: ERBB2 (human) (UniProt P04626) assay, molecule `O=C1NC(=O)/C(=C/c2ccc3c(c2)OC(F)(F)O3)S1` , residual activity = 102

Lab entry: ERBB2 (human) (UniProt P04626) assay, molecule `Nc1cccc(-c2cc3c(Oc4cccc(O)c4)ncnc3[nH]2)c1` , residual activity = 76.6

Lab entry: ERBB2 (human) (UniProt P04626) assay, molecule `O=C1NC(=O)c2c1c1c3ccccc3n3c1c1c2c2ccccc2n1C1CCC3O1` , residual activity = 98.4

Lab entry: ERBB2 (human) (UniProt P04626) assay, molecule `Nc1ccc2ncnc(NCCc3ccc(Oc4ccccc4)cc3)c2c1` , residual activity = 108

----------
biological target: HIPK3 (human) (UniProt Q9H422); test: radiometric filter-binding kinase assay, Kinase HotSpot; details: compound 0.5 µM; ATP 10 µM
Sequence (Q9H422 whole entry, looked up): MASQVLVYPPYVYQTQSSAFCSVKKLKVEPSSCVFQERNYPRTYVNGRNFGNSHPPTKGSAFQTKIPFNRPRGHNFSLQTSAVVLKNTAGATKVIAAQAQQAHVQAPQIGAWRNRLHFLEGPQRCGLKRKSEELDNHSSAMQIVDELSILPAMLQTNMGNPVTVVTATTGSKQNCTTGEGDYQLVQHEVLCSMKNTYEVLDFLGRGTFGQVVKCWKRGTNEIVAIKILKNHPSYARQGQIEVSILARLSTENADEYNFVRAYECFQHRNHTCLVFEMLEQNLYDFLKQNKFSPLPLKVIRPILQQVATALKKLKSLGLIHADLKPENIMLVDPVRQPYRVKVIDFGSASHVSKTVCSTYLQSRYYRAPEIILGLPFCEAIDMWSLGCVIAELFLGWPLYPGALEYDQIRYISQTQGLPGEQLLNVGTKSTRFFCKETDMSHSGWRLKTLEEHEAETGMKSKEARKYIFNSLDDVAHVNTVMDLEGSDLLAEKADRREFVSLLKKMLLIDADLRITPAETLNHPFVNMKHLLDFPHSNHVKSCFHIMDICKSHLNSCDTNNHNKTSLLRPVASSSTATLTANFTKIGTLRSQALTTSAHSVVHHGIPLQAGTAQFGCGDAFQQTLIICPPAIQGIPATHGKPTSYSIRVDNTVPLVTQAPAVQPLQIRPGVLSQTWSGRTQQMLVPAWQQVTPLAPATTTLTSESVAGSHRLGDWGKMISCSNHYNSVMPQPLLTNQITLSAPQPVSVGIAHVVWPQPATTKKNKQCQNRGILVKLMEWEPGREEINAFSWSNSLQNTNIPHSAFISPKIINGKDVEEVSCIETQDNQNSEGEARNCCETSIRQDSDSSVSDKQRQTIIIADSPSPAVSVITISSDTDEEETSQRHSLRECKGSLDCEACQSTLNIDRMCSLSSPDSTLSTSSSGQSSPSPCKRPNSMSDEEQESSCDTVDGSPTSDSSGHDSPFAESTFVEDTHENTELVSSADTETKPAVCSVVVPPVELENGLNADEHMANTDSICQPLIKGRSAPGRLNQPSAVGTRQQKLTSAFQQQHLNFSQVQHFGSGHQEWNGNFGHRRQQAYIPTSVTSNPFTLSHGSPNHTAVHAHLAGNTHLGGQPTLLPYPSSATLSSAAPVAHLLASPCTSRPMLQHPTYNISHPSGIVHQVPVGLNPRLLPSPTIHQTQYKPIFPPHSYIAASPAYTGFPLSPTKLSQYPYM
assay readout: residual activity (%)
I only need the number, in %, no unit after it.

Sure, the documented residual activity for `O=C(Nc1cccc(Nc2nccc(Nc3cccc(C(F)(F)F)c3)n2)c1)C1CC1` is 104

Sure, the documented residual activity for `CNC(=O)c1cc(Oc2ccc(NC(=O)Nc3ccc(Cl)c(C(F)(F)F)c3)cc2)ccn1` is 85.7

Sure, the documented residual activity for `CC#CC(=O)Nc1cc2c(Nc3ccc(F)c(Cl)c3)ncnc2cn1` is 92.9

Sure, the documented residual activity for CO[C@H]1CC2CC[C@@H](C)[C@@](O)(O2)C(=O)C(=O)N2CCCC[C@H]2C(=O)OC([C@H](C)C[C@@H]2CC[C@@H](O)[C@H](OC)C2)CC(=O)[C@H](C)/C=C(\C)[C@@H](O)[C@@H](OC)C(=O)[C@H](C)C[C@H](C)/C=C/C=C/C=C/1C (stereo not given in full) is 107

Sure, the documented residual activity for `Nc1cccc(-c2cc3c(Oc4cccc(O)c4)ncnc3[nH]2)c1` is 94

Sure, the documented residual activity for `Cc1ccc(Nc2nccc(N(C)c3ccc4c(C)n(C)nc4c3)n2)cc1S(N)(=O)=O` is 103

Sure, the documented residual activity for `Cc1[nH]c(/C=C2\C(=O)Nc3ccc(S(=O)(=O)N(C)c4cccc(Cl)c4)cc32)c(C)c1C(=O)N1CCN(C)CC1` is 103

Sure, the documented residual activity for `COc1ccc(COc2ccc(Cc3cnc(N)nc3N)cc2OC)cc1` is 102

Sure, the documented residual activity for `CCN(CC)CCNC(=O)c1c(C)[nH]c(/C=C2\C(=O)Nc3ccc(F)cc32)c1C` is 47.3

Sure, the documented residual activity for `COc1ccc2c(c[n+](C)c3c4cc5c(cc4ccc23)OCO5)c1OC` is 96.6

Sure, the documented residual activity for `N#C/C(=C(/N)Sc1ccc(N)cc1)c1ccccc1C(F)(F)F` is 114

Sure, the documented residual activity for `COc1cc2ncnc(Nc3cccc(Cl)c3)c2cc1OC` is 98.9

Sure, the documented residual activity for `O=S(=O)(c1cccc2cnccc12)N1CCCNCC1` is 107

Sure, the documented residual activity for `O=C1NC(=O)C(c2cn(CCCn3ccnc3)c3ccccc23)=C1Nc1ccccc1` is 102

Sure, the documented residual activity for `CCOC(=O)c1c(C)[nH]c(/C=C2\C(=O)Nc3ccccc32)c1C` is 94.5

Sure, the documented residual activity for `Nc1ncnc2[nH]nc(Nc3ccc(F)cc3)c12` is 101

Sure, the documented residual activity for `CCCC(=O)Oc1ccc2[nH]c(C(=O)c3cc4ccccc4[nH]3)cc2c1` is 94.7

Sure, the documented residual activity for `O=C1NC(=O)/C(=C/c2ccc3c(c2)OC(F)(F)O3)S1` is 90.1

Sure, the documented residual activity for `CCN(CC)C(=O)c1ccc(Nc2nc(OCC3CCCCC3)c3nc[nH]c3n2)cc1` is 96.4

Sure, the documented residual activity for `Oc1cccc(-c2nc(N3CCOCC3)c3oc4ncccc4c3n2)c1` is 93.8

----------
molecular target: NEK1 (human) (UniProt Q96PY6); experiment: radiometric filter-binding kinase assay, Kinase HotSpot; settings: compound 0.5 µM; ATP 10 µM
Sequence (Q96PY6 whole entry, looked up): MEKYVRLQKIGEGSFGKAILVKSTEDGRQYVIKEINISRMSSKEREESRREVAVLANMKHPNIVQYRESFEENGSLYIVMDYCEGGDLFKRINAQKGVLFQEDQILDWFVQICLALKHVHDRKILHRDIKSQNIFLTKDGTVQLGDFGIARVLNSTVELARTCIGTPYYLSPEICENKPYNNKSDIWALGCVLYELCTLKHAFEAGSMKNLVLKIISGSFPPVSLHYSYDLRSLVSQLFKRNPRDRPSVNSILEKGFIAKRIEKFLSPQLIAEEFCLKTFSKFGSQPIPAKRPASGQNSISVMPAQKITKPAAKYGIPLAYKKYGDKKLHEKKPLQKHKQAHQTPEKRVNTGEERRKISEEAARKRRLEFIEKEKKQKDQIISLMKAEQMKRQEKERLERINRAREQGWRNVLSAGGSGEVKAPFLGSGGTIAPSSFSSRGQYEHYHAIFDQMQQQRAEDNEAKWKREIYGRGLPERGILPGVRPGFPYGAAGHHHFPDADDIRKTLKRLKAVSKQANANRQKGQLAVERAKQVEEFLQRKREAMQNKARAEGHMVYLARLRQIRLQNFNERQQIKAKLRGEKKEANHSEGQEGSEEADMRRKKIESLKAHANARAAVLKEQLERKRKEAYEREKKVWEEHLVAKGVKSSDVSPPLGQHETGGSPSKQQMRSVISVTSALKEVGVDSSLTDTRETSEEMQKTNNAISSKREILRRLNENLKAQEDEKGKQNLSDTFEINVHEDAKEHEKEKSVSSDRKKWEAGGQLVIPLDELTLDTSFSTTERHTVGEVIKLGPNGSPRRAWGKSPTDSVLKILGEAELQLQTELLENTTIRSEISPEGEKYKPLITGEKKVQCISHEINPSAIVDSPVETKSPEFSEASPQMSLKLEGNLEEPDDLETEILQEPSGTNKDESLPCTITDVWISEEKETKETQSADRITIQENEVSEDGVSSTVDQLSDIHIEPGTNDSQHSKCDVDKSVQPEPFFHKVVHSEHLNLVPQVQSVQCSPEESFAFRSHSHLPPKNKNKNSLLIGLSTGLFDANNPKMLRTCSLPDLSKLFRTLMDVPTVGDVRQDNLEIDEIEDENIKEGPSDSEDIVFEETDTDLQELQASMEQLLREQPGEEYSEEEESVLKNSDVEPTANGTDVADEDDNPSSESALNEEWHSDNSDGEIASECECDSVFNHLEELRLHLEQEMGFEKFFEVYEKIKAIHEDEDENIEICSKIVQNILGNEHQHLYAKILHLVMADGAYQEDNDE
assay readout: residual activity (%)
I only need the number, in %, no unit after it.

Sure, the documented residual activity for `Cc1ccc(S(=O)(=O)/C=C/C#N)cc1` is 92.3

Sure, the documented residual activity for `Nc1cccc(-c2cc3c(Oc4cccc(O)c4)ncnc3[nH]2)c1` is 92.3

Sure, the documented residual activity for `CCCC(=O)Oc1ccc2[nH]c(C(=O)c3cc4ccccc4[nH]3)cc2c1` is 94.3

Sure, the documented residual activity for `COc1ccc(COc2ccc(Cc3cnc(N)nc3N)cc2OC)cc1` is 95.6

Sure, the documented residual activity for `Cc1ccc(Nc2nccc(N(C)c3ccc4c(C)n(C)nc4c3)n2)cc1S(N)(=O)=O` is 105

Sure, the documented residual activity for `N#CC(C#N)=C(N)/C(C#N)=C/c1ccc(O)cc1` is 95.7
